Measured Kd, listed per entry.
Molecular target: T1, ToPif1 (wild type) (Thermus oshimai, UniProt K7RJ88 64-507)
T1 sequence: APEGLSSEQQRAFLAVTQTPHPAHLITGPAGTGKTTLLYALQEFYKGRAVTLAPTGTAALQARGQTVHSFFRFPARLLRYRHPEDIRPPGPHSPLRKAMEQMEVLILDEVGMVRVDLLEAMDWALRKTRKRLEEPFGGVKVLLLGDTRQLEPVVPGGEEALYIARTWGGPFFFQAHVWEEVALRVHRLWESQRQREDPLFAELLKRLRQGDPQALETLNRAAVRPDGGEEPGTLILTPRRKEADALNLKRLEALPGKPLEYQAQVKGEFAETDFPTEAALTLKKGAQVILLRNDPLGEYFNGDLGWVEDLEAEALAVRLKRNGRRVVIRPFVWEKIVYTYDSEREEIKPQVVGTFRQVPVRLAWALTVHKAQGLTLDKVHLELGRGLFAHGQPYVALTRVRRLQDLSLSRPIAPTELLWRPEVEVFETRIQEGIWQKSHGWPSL
Test: fluorescence anisotropy
TEST READOUT: Kd

>>> assay_value("TTTTTTTTTTTT (ssDNA) [T12]")
"~29.1 nM"
>>> assay_value("AGGGTGGGTGGGTGGG (structured_DNA) [G4CEB]")
"~23.3 nM"
>>> assay_value("GGGTTAGGGTTAGGGTTAGGG (structured_DNA) [G4Tel]")
"~29.6 nM"
